# SYSTEM_NAME: HLA-A*11:01
# EXPERIMENTAL_DETAILS: IEDB peptide-MHC binding, purified MHC/competitive/radioactivity; bounds were set here for any values at or beyond the usual limits of such assays
# SETTINGS: source organism: Human immunodeficiency virus type 1 (JRCSF ISOLATE)
Binary call on IC50 with cut-off 30 nM: strictly below means satisfied, and equality or higher means not satisfied.

Completed entries (count: 3):
item_sequence=MVHQAISPR category_label="not satisfied"
item_sequence=TIKIGGQLK category_label="not satisfied"
item_sequence=MAVFIHNFK category_label=satisfied

Lab note: IC50 threshold 30 nM. Does this sequence come in strictly under it? AVFIHNFKR satisfied

Record TTLFCASDAK : is its IC50 strictly below 30 nM? satisfied

Hello, is IC50 of the following sequence strictly smaller than 30 nM? NTPVFAIKK not satisfied

----------
# SYSTEM_NAME: HLA-A*03:01
# EXPERIMENTAL_DETAILS: IEDB peptide-MHC binding, purified MHC/competitive/radioactivity; filed as Kd, often an IC50 or EC50 that approximates it; bounds were set here for any values at or beyond the usual limits of such assays
# SETTINGS: source organism: Human immunodeficiency virus type 1 (JRCSF ISOLATE)
QUANTITY_NAME: Kd (µM)
Just the number please, in µM, no unit attached.

MTKILEPFR yielded Kd of 13.8
